Molecular target: GAL-hERRa (human ERRα ligand binding domain fused to GAL4 DNA binding domain) (Homo sapiens)
Construct: expressed in transfected cells; host or cells: CV-1
Sequence (P11474 193-421 limits assumed): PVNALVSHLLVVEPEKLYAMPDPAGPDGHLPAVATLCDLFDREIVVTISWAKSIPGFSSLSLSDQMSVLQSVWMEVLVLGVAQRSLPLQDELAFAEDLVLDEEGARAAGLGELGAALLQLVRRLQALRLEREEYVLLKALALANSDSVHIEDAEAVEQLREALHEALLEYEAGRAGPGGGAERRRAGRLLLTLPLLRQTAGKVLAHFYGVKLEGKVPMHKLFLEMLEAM
Assay: GAL4 reporter transactivation assay in CV-1 cells, GAL-hERRa
Type: cell-based
Settings: CV-1; reporter 0.42:vector 0.00875:PGC-1a 0.035; 30 μM
Recorded endpoint: Fold activation, GAL-hERRa + PGC-1a (fold)
One number for each entry, in fold.

Hi, could you look up Fold activation, GAL-hERRa + PGC-1a for each item in my list?
1. O=C(NN=Cc1ccccc1)c1ccc(O)cc1
2. CCc1ccc(C=NNC(=O)c2ccc(O)cc2)s1
3. CCN(CC)c1ccc(C=NNC(=O)c2ccc(O)cc2)cc1
4. Cc1cccc(C=NNC(=O)c2ccc(O)cc2)c1

[2.36, 2.75, 3.31, 2.61]

----------
Target: GAL-L-hERRb (human ERRβ ligand binding domain fused to GAL4 DNA binding domain) (Homo sapiens)
Construct: expressed in transfected cells; host or cells: CV-1
Sequence (O95718 208-432 limits assumed): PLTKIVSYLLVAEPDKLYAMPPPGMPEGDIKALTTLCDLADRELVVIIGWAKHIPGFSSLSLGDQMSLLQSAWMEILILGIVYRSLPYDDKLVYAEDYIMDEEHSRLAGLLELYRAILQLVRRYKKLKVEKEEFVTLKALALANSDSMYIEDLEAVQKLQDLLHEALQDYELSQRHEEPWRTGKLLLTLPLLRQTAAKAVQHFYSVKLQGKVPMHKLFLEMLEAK
Experiment: GAL4 reporter transactivation assay in CV-1 cells, GAL-L-hERRb
Format: cell-based
Settings: CV-1; reporter 0.42:vector 0.00875; no PGC-1a; 30 μM
Recorded endpoint: Fold activation, GAL-L-hERRb (fold)
Numbers only, in fold.

smiles_repr=CCN(CC)c1ccc(C=NNC(=O)c2ccc(O)cc2)cc1 recorded_value=2.46
smiles_repr=CCc1ccc(C=NNC(=O)c2ccc(O)cc2)s1 recorded_value=1.89
smiles_repr=Cc1cccc(C=NNC(=O)c2ccc(O)cc2)c1 recorded_value=1.36

Note: attention shifts to another entry.
Reported Fold activation, GAL-L-hERRb ( O=C(NN=Cc1ccccc1)c1ccc(O)cc1 ) = 1.48

----------
Target: human ERβ (Homo sapiens)
Construct: Human ERα and ERβ were examined as full-length proteins using an estrogen receptor responsive reporter construct; expressed in transfected cells; host or cells: CV-1
Sequence (Q92731 whole entry): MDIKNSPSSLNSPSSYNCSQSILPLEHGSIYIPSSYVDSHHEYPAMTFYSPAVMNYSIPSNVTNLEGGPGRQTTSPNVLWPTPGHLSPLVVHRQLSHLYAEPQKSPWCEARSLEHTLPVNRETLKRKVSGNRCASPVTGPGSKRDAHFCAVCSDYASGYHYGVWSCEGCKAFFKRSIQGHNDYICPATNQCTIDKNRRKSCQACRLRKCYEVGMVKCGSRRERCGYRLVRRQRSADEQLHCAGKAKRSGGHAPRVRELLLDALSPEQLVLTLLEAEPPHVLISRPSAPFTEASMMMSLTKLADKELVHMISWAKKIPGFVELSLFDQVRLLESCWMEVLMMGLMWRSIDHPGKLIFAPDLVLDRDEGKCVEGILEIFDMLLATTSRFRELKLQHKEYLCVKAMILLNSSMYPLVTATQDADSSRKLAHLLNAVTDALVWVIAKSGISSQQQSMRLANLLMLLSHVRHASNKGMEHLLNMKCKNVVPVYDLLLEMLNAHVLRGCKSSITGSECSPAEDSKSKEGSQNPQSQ
Assay: ERE-TK-luc reporter transactivation assay in CV-1 cells, full-length hERb
Format: cell-based
Conditions: Table 7; CV-1; drug conc 30 μM
Recorded endpoint: Fold Activation, ERE-TK-luc, hERb
Your reply should be a number followed by the unit it is expressed in.

Hi, could you look up Fold Activation, ERE-TK-luc, hERb for each item in my list?
1. CCc1ccc(C=NNC(=O)c2ccc(O)cc2)s1
2. O=C(NN=Cc1ccccc1)c1ccc(O)cc1
3. Cc1cccc(C=NNC(=O)c2ccc(O)cc2)c1
4. CCN(CC)c1ccc(C=NNC(=O)c2ccc(O)cc2)cc1

1. 1.74 fold
2. 1.74 fold
3. 1.93 fold
4. 1.19 fold

----------
Target: GAL-L-hERRb (human ERRβ ligand binding domain fused to GAL4 DNA binding domain) (Homo sapiens)
Construct: expressed in transfected cells; host or cells: CV-1
Assay: GAL4 reporter transactivation assay in CV-1 cells, GAL-L-hERRb
Assay type: cell-based
Conditions: CV-1; reporter 0.42:vector 0.00875:PGC-1a 0.035; 30 μM
Recorded endpoint: Fold activation, GAL-L-hERRb + PGC-1a (fold)
One number for each entry, in fold.

Observe how each entry below is paired with its result.
smiles_repr=CCN(CC)c1ccc(C=NNC(=O)c2ccc(O)cc2)cc1 units_of_measure=fold recorded_value=2.52
smiles_repr=CCc1ccc(C=NNC(=O)c2ccc(O)cc2)s1 units_of_measure=fold recorded_value=2.34
smiles_repr=O=C(NN=Cc1ccccc1)c1ccc(O)cc1 units_of_measure=fold recorded_value=2.61

Note: attention shifts to another entry.
Reported Fold activation, GAL-L-hERRb + PGC-1a ( Cc1cccc(C=NNC(=O)c2ccc(O)cc2)c1 ) = 2.45

// provenance: patent US9085550B2
